Substrate: ICOS (Homo sapiens (Human)) (UniProt Q9Y6W8)
Sequence (Q9Y6W8 21-199 limits assumed): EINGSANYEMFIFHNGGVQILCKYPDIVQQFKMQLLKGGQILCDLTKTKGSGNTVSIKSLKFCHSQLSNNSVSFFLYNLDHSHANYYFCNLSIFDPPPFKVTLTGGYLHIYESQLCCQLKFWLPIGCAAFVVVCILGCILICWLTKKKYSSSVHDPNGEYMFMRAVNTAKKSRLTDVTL
Test: flow cytometry, transfected cells
Readout name: MFI ratio to WT (ΔWT) (fold)
Answer in fold, number only, no unit symbol.

ICOSL-Fc N52S/N57Y/Q100S (Fc fusion) DTQEKEVRAMVGSDVELSCACPEGSRFDLNDVYVYWQTSESKTVVTYHIPQSSSLEYVDSRYRNRALMSPAGMLRGDFSLRLFNVTPQDEQKFHCLVLSSSLGFQEVLSVEVTLHVAANFSVPVVSAPHSPSQDELTFTCTSINGYPRPNVYWINKTDNSLLDQALQNDTVFLNMRGLYDVVSVLRIARTPSVNIGCCIENVLLQQNLTVGSQTGNDIGERDKITENPVSTGEKNAAT : 1.06

Now for the binder whose MFI ratio to WT (ΔWT) we want.
Req: What value of MFI ratio to WT (ΔWT) has been reported for the following binder? ICOSL-Fc N57Q/Q100P (Fc fusion) DTQEKEVRAMVGSDVELSCACPEGSRFDLNDVYVYWQTSESKTVVTYHIPQNSSLEQVDSRYRNRALMSPAGMLRGDFSLRLFNVTPQDEQKFHCLVLSPSLGFQEVLSVEVTLHVAANFSVPVVSAPHSPSQDELTFTCTSINGYPRPNVYWINKTDNSLLDQALQNDTVFLNMRGLYDVVSVLRIARTPSVNIGCCIENVLLQQNLTVGSQTGNDIGERDKITENPVSTGEKNAAT
Resp: 0.97
